procedureText: NCI Yeast Anticancer Drug Screen. Data for the wt1 strain (AID 149)
conditionsUsed: S. cerevisiae wt1 strain (SPY 50644) growth inhibition; at 11.0 µM
This is part of a sample that, as a whole, favours compounds with a hit. Of some 79,000 tested, about 15% had one in any assay. Activity calls are given as the source filed them. Cut-off read from the data, not from the text of the source: active = growth inhibition above about 70%; inactive = the rest.
Outcomes: Y for active, N for inactive

compound: CCCCCCCCCCCCCC(=O)OC(C)CCC1CCCO1 (configuration not stated)
assignedClass: N

compound: Cc1ccc(N=Nc2ccc(O)c(C)c2)cc1
assignedClass: Y

compound: O=C1C=CC(=O)N1c1ccc(I)cc1
assignedClass: Y

compound: O=[N+]([O-])c1cccc2nc3ccccc3c(NCCc3cccc[n+]3[O-])c12
assignedClass: N

compound: CCOC(=O)[C@]1(Br)CC[C@@]1(Br)C(=O)OCC
assignedClass: N

compound: CCOP1(=O)C=C(Sc2ccc([N+](=O)[O-])cc2[N+](=O)[O-])C(C)(C)O1 (configuration not stated)
assignedClass: N

compound: Cc1ccc(Nc2c3c(c(C#N)c4nc5ccccc5n24)CCCC3)cc1
assignedClass: N

compound: COC(=O)/C=C1/OC(c2ccc(Br)cc2)=C(Br)C1=O
assignedClass: N

compound: N#CC(=S)Nc1cccc(Cl)c1
assignedClass: N

compound: COc1cc(CNc2ccc(C(C)C)cc2)cc(OC)c1OC
assignedClass: N

compound: O=Cc1coc2ccccc2c1=O
assignedClass: N

compound: CN(N=O)C(=O)N[C@@H](C=O)[C@@H](O)[C@H](O)[C@H](O)CO
assignedClass: N

----------
procedureText: NCI Yeast Anticancer Drug Screen. Data for the rad50 strain (AID 155)
conditionsUsed: S. cerevisiae rad50 strain growth inhibition; at 33.0 µM
The panel holds about 79,000 compounds, 15% with a hit somewhere; the sample as a whole holds those more often. Active and inactive are the calls of the source. Cut-off read from the data, not from the text of the source: active = growth inhibition above about 70%; inactive = the rest.
Possible outcomes: Y for active, N for inactive

compound: CC(C)c1cccc(O)c(=O)c1
assignedClass: N
//
compound: Cc1cc(C)c(N2C(=O)CC(Sc3ccccc3N)C2=O)c(C)c1 (stereo unspecified)
assignedClass: N
//
compound: CCN(CC)CCNC(=O)c1nn(-c2ccc(Cl)cc2)c2c1CCc1cc(OC)ccc1-2
assignedClass: N
//
compound: COCCCN(Cc1cc(OC)c(OC)c(OC)c1)C(=S)Nc1cccc(Cl)c1
assignedClass: N
//
compound: COc1cc2c(cc1C[N+](C)(C)CSc1ccccc1)-c1ccccc1CC2
assignedClass: Y
//
compound: O=C(Nc1ccc2c(c1)Cc1c-2ccc([N+](=O)[O-])c1F)C(F)(F)F
assignedClass: N
//
compound: O=C(CCc1ccccc1)ON1C(=S)C(c2ccccc2)(c2ccccc2)N=C1Sc1ccccc1
assignedClass: N
//
compound: Cc1cc(O)c2c(c1)C(=O)C=C(Br)C2=O
assignedClass: Y
//
compound: CC(=O)CC(=O)/C=C/c1cccs1
assignedClass: Y
//
compound: S=C(S)NCC1CCC(CNC(=S)S)CC1 (stereo unspecified)
assignedClass: N
//
compound: O=C(/C=C/c1cccc(Br)c1)c1ccc(Cl)cc1
assignedClass: N

----------
procedureText: NCI Yeast Anticancer Drug Screen. Data for the rad52 strain (AID 147)
conditionsUsed: S. cerevisiae rad52 mutant growth inhibition; at 11.0 µM; active compounds read high
About 79,000 compounds went through this panel and 15% of them were active in at least one assay; those are over-represented in the sample as a whole.
Tick Fulfilled if growth inhibition is 20% or greater. Tick Not fulfilled if growth inhibition is less than 20%.

molecule: O=c1ccc(N=Nc2ccccc2)ccc1O
assignedClass: Fulfilled
//
molecule: CN(Cc1cnc2nc(N)nc(N)c2n1)c1ccc(C(=O)NC(CCC(=O)O)C(=O)O)c2ccccc12 (configuration not stated)
assignedClass: Fulfilled
//
molecule: COc1cc(/C=C/c2sc3ccccc3[n+]2C)ccc1N(C)C
assignedClass: Not fulfilled
//
molecule: N#C/C(=C/N1C(=O)/C(=C/c2ccc([N+](=O)[O-])cc2)SC1=S)c1nc2ccccc2s1
assignedClass: Not fulfilled
//
molecule: CCCCC1=NNC(=O)C1
assignedClass: Not fulfilled
//
molecule: CN(NC(=O)/C(=C/c1ccc(O)cc1)NC(=O)c1ccccc1)c1ccnc2cc(Cl)ccc12
assignedClass: Fulfilled
//
molecule: Cc1ccc(N=Nc2ccc(O)c(C)c2)cc1
assignedClass: Fulfilled
//
molecule: O=C(/C=C/c1cccc(Br)c1)c1ccc(Cl)cc1
assignedClass: Not fulfilled
//
molecule: Cc1cc(Cl)nc2nc(Cl)c(N)cc12
assignedClass: Not fulfilled
//
molecule: NC(N)=N/N=C/c1cc(Cl)cc(Cl)c1O
assignedClass: Fulfilled
//
molecule: c1ccc(N2N=C3N(c4ccccc4)C2N3c2ccccc2)cc1
assignedClass: Not fulfilled
//
molecule: O=C1C=CC(=O)N1c1ccc(N2C(=O)C=CC2=O)cc1
assignedClass: Fulfilled

This collection of values is drawn from PubChem BioAssay (NCI).
